Test system: BT549
Assay: area over the GR curve, 72 h; higher = more effect
// map area over the GR curve to label using bottom bin: < 0.1 GR; middle bin: ≥ 0.1 GR and < 0.4 GR; top bin: ≥ 0.4 GR

Some entries whose results are on file:
CNC(=O)c1cccc(-c2ccc3c(N4CCOC[C@@H]4C)nc(N4CCOC[C@@H]4C)nc3n2)c1 [AZD2014] (max 10 µM); top bin
CN(C)C/C=C/C(=O)Nc1ccc(C(=O)Nc2cccc(Nc3ncc(Cl)c(-c4c[nH]c5ccccc45)n3)c2)cc1 [THZ1] (max 1 µM); middle bin
CC(=O)c1c(C)c2cnc(Nc3ccc(N4CCN(CCOCCOCCOCCNC(=O)COc5cccc6c5C(=O)N(C5CCC(=O)NC5=O)C6=O)CC4)cn3)nc2n(C2CCCC2)c1=O (centres undefined) [BSJ-03-123] (max 10 µM); middle bin

Input Cc1cc(C(C)Nc2ccccc2)c2nc(N3CCOCC3)cc(=O)n2c1 (centres undefined) [TGX221] (max 10 µM) ; output its category
bottom bin

Input Cc1cc(Nc2ncc(Cl)c(Nc3ccccc3S(=O)(=O)C(C)C)n2)c(OC(C)C)cc1C1CCNCC1 [Ceritinib/LDK378] (max 10 µM) ; output its category
middle bin

Input CC[C@@]1(O)C(=O)OCc2c1cc1n(c2=O)Cc2cc3c(CN(C)C)c(O)ccc3nc2-1 [Topotecan] (max 10 µM) ; output its category
top bin

Input O=C(CCCCCCC(=O)Nc1ccccc1)NO [Vorinostat] (max 10 µM) ; output its category
middle bin

Input CCc1cnn2c(NCc3ccc[n+]([O-])c3)cc(N3CCCC[C@H]3CCO)nc12 (max 1 µM) ; output its category
top bin

Input NC1(C(=O)N[C@@H](CCO)c2ccc(Cl)cc2)CCN(c2nc[nH]c3nccc2-3)CC1 [AZD5363] (max 10 µM) ; output its category
middle bin

Input O=C1NC(=O)[C@@H](c2cn3c4c(cccc24)CCC3)[C@@H]1c1c[nH]c2ccccc12 [Tivantinib/ARQ197] (max 10 µM) ; output its category
middle bin

Input N.N.[Cl][Pt][Cl] [Cisplatin] (max 10 µM) ; output its category
middle bin

* * *

System: HCC1187
Test: area over the GR curve, 72 h; higher = more effect;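 also: Dye Drop or Deep Dye Drop imaging of viable cells in 384-well plates (Hoechst nuclei, LIVE/DEAD dye), nine half-log doses, GR normalized to DMSO controls and time-zero plates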
measurement-name: area over the GR curve (GR)
Report the value in GR with no unit label.

Worked cases, area over the GR curve given:
CC(=O)Nc1cccc(-n2c(=O)n(C3CC3)c(=O)c3c(Nc4ccc(I)cc4F)n(C)c(=O)c(C)c32)c1 (max 1 µM); 0.198
CCc1cncnc1N1CCN(Cc2nc3ccc(C(F)(F)F)cc3[nH]2)CC1 (max 10 µM); 0.014
CO[C@H]1C[C@@H]2CC[C@@H](C)[C@@](O)(O2)C(=O)C(=O)N2CCCC[C@H]2C(=O)O[C@H]([C@H](C)C[C@@H]2CC[C@@H](OCCO)[C@H](OC)C2)CC(=O)[C@H](C)/C=C(\C)[C@@H](O)[C@@H](OC)C(=O)[C@H](C)C[C@H](C)/C=C/C=C/C=C/1C [Everolimus] (max 10 µM); 0.287
CCCCOc1c(C(=O)c2c(F)cc(C)cc2F)c[nH]c2nncc1-2 (max 10 µM); 0.203
CCN1CCN(Cc2ccc(Nc3ncc(F)c(-c4cc(F)c5nc(C)n(C(C)C)c5c4)n3)nc2)CC1 (max 10 µM); 0.33

What measured area over the GR curve goes with CCOc1cc2ncc(C#N)c(Nc3ccc(OCc4ccccn4)c(Cl)c3)c2cc1NC(=O)/C=C/CN(C)C [Neratinib/HKI272] (max 3.162 µM) ?
0.181

Hey, just so you know, these numbers are from the supplement of paper PMC9663587.
